The entries below are paired with their reported relative cell viability.
Test system: HCC1937;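 note: breast cancer cell viability read out with the CCK-8 kit after co-treatment of each compound with the ferroptosis inducer RSL3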
protocol-summary: relative cell viability, compound + RSL3, vs DMSO (fraction of DMSO control); higher = less growth inhibition
condition-parameters: 72 h
outcome-measure: relative cell viability

>>> endpoint_result("CC(=O)O[C@H](CC=C(C)C)C1=CC(=O)c2c(O)ccc(O)c2C1=O [Acetyl shikonin] + COC(=O)c1ccc([C@H]2c3[nH]c4ccccc4c3C[C@H](C(=O)OC)N2C(=O)CCl)cc1")
0.665
>>> endpoint_result("O=C(Nc1cccnn1)N1CCC(=Cc2cccc(Oc3ccc(C(F)(F)F)cn3)c2)CC1 + COC(=O)c1ccc([C@H]2c3[nH]c4ccccc4c3C[C@H](C(=O)OC)N2C(=O)CCl)cc1")
0.686
>>> endpoint_result("COc1cc(N2CCN(C)CC2)ccc1Nc1ncc2c(n1)N(C)c1ccccc1C(=O)N2 + COC(=O)c1ccc([C@H]2c3[nH]c4ccccc4c3C[C@H](C(=O)OC)N2C(=O)CCl)cc1")
0.213
>>> endpoint_result("O=C(O)CC[C@H](O)C(=O)O [L-2-Hydroxyglutaric acid disodium] + COC(=O)c1ccc([C@H]2c3[nH]c4ccccc4c3C[C@H](C(=O)OC)N2C(=O)CCl)cc1")
0.554
>>> endpoint_result("Oc1ccc(/C=C/c2cc(O)cc(O)c2)cc1 [Resveratrol] + COC(=O)c1ccc([C@H]2c3[nH]c4ccccc4c3C[C@H](C(=O)OC)N2C(=O)CCl)cc1")
0.63
